Reference source: patent US20060234909A1

test system: HT-29 cells; conditions: read-out: HT29 (EC50 Ave) SA; HT29, SA (soft agar)
readout_kind: EC50

(Q) Give recorded EC50 with HT-29 cells for the following compound: CC[C@H](C)[C@H](NC(=O)[C@H](Cc1ccc(O)cc1)NC(=O)C(C)(C)C)C(=O)N[C@@H](Cc1ccc(O)cc1)C(=O)NCC(=O)N[C@@H](CO)C(=O)N[C@@H](Cc1ccccc1)C(=O)N[C@@H](CCCNC(=N)N)C(=O)NCCCOCCOCCOCCCNC(=O)O[C@H]1C(=O)[C@@]2(C)[C@H]([C@H](OC(=O)c3ccccc3)[C@]3(O)C[C@H](OC(=O)[C@H](O)[C@@H](NC(=O)c4ccccc4)c4ccccc4)C(C)=C1C3(C)C)[C@]1(OC(C)=O)CO[C@@H]1C[C@@H]2O [Pv-YIYGSFR-PEG(13)-10Ca-PXL]
(A) > 100 nM

(Q) Give recorded EC50 with HT-29 cells for the following compound: CC[C@H](C)[C@H](NC(=O)[C@H](Cc1ccc(O)cc1)NC(=O)OCc1ccccc1)C(=O)N[C@@H](Cc1ccc(O)cc1)C(=O)NCC(=O)N[C@@H](CO)C(=O)N[C@@H](Cc1ccccc1)C(=O)N[C@@H](CCCCN)C(=O)NCCOCCOCCOCCNC(=O)[C@@]1(O)[C@H](O)[C@]2(CC)C=CCN3CC[C@@]4(c5cc([C@@]6(C(=O)OC)C[C@@H]7CN(CCc8c6[nH]c6ccccc86)C[C@](O)(CC)C7)c(OC)cc5N(C)[C@@H]14)[C@@H]32
(A) > 100 nM

* * *

experiment: Serum stability in RPMI1640 medium containing 10% fetal bovine serum; assay type: in vitro ADME; conditions: bovine, read-out: T½ (converted)
readout_kind: half-life at 10 μM (h)
Could you give me the number in h? Just the number is fine.

(Q) Fill in: half-life at 10 μM of CC[C@H](C)[C@H](NC(=O)[C@H](Cc1ccc(O)cc1)NC(=O)[C@H](CCC(=O)O)NC(C)=O)C(=O)N[C@@H](Cc1ccc(O)cc1)C(=O)NCC(=O)N[C@@H](CO)C(=O)N[C@@H](Cc1ccccc1)C(=O)N[C@@H](CCCCN)C(=O)NCCCOCCOCCOCCCNC(=O)O[C@H]1C(=O)[C@@]2(C)[C@H]([C@H](OC(=O)c3ccccc3)[C@]3(O)C[C@H](OC(=O)[C@H](O)[C@@H](NC(=O)c4ccccc4)c4ccccc4)C(C)=C1C3(C)C)[C@]1(OC(C)=O)CO[C@@H]1C[C@@H]2O is ___
(A) 32

* * *

tested on: HT-29 colorectal carcinoma; experiment: Cytotoxicity assay (monolayer), HT-29; format: cell-based; settings: HT29, ML (monolayer); read-out: HT29 (EC50 Ave) ML;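 note: monolayer cultures tested in triplicate, compound exposure for three days against DMSO vehicle controls, EC50 fitted from dose-response curves and averaged across all tests and lots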
Primed or numbered codes have the meaning given here. * marks the point of attachment. 10Ca = carbamate linkage conjugating the peptide-PEG to paclitaxel at C10; PEG(11) = PEG(11) linker; 3Am = not defined here; Cbz = O=C(OCc1ccccc1)*; PEG(13) = PEG13 linker; VBL = vinblastine; PXL = paclitaxel
Assignment: determine reported EC50 for the given substances.

(Q) Fill in: EC50 of Ac-YIYGSFR-PEG(13)-10Ca-PXL (N-acetyl; PEG(13) linker; paclitaxel conjugate) is ___
(A) > 100 nM

(Q) Fill in: EC50 of H-YIYGSFK-PEG(11)-3Am-VBL (H-YIYGSFK-{PEG(11)-3Am-VBL}; reading uncertain) is ___
(A) > 100 nM

(Q) Fill in: EC50 of Ac-EYIYGSFK(CBz)-PEG(13)-10Ca-PXL (Ac-EYIYGSFK(Cbz)-{PEG(13)-10Ca-PXL}) is ___
(A) > 100 nM

(Q) Fill in: EC50 of Ac-EYIYGSFR-PEG(11)-3Am-VBL (N-acetyl, PEG11, vinblastine conjugate) is ___
(A) > 100 nM

(Q) Fill in: EC50 of CBz-GRPRTSSFAE(Bzl)G-3Am-VBL is ___
(A) 20 to 100 nM
